Reference source: ChEMBL document CHEMBL3046389

- Test system: BT-549
- ASSAY EXPLANATION: Anticancer activity against Homo sapiens (human) BT549 cells after 48 hr by SRB assay
- Assay type: functional
- CONDITION DETAILS: BT-549, 48 h
QUANTITY NAME: TGI

Look over these answered cases.
COc1ccc(OC)c(/C=C/C(=O)N/N=C/c2ccccc2)c1: 90.4 µM
COc1ccc(OC)c(/C=C/c2nnc(S)n2-c2ccc(Cl)cc2)c1: > 100 µM

Ask | Lab note: need TGI with BT-549 for entry COc1ccc(OC)c(/C=C/C(=O)N/N=C/c2ccc(Cl)cc2)c1 , please look it up.
Reply | > 100 µM

Ask | Lab note: need TGI with BT-549 for entry COc1ccc(OC)c(/C=C/c2nnc(Nc3ccc(Cl)cc3)o2)c1 , please look it up.
Reply | > 100 µM
